# Test system: Jurkat (T cell leukemia overexpressing HDAC8)
# PROCEDURE_TEXT: Anti-cancer activity screen
# Assay type: cell-based
# EXPERIMENTAL_SETUP: Homo sapiens, Jurkat; read-out: Jurkat (μm)
READOUT_LABEL: IC50 (µM)
Reply numerically in µM, unit not repeated.

Enquiry: // returns reported IC50 for input `Oc1cccn(Cc2ccc(Cn3cc(-c4ccccc4)nn3)cc2)c1=S`
Return: 6.55

###

# ASSAYED_TARGET: UniProt:Q9BY41
# Sequence (Q9BY41 whole entry): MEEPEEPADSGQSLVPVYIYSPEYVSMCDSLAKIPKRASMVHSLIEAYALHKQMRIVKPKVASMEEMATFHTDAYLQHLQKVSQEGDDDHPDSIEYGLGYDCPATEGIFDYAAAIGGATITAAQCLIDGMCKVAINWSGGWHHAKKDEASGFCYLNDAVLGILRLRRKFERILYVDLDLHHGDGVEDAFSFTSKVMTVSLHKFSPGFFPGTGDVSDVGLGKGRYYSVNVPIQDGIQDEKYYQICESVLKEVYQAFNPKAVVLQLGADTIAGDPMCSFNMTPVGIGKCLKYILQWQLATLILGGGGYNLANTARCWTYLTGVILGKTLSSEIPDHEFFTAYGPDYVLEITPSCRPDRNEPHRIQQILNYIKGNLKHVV
# PROCEDURE_TEXT: SAMDI mass spectrometry HDAC inhibition assay
# Format: biochemical
# EXPERIMENTAL_SETUP: SAMDI; read-out: HDAC8 IC50
READOUT_LABEL: pIC50
// pIC50 is dimensionless: -log10 of concentration (M)

Take a look at these entries with their results.
Cc1ccc(-c2ccc(Cn3cccc(O)c3=S)cc2)cc1 [Compound 149d] : 6.10
Oc1cccn(Cc2ccccc2)c1=S [Compound 144b, 1-Benzyl-3-hydroxypyridine-2-thione] : 5.90

Enquiry: Hi! What's the reported pIC50 for N#Cc1ccccc1-c1ccc(Cn2cccc(O)c2=S)cc1 [Compound 149c] on UniProt:Q9BY41?
Return: 5.72

Enquiry: Field: pIC50 (UniProt:Q9BY41). Entry: Oc1cccn(Cc2ccc(-c3ccccc3)cc2)c1=S [Compound 144c]
Return: 5.37

Enquiry: Please state recorded pIC50 (tested on UniProt:Q9BY41) of N#Cc1ccc(-c2ccc(Cn3cccc(O)c3=S)cc2)cc1 [Compound 149a]
Return: 5.68
